Molecular target: T1, human AXL (Homo sapiens, UniProt P30530)
T1 construct: expression constructs for full length human AXL; expressed in transfected cells; host or cells: HEK293T
Experiment: Flow cytometry binding to HEK293T cells transfected with full length human AXL
Conditions: at least 3 experiments
parameter.measured: Binding EC50 human AXL Average (s.d.)

Some molecules with recorded Binding EC50 human AXL Average (s.d.):
molecule	Binding EC50 human AXL Average (s.d.)
IgG1-AXL-726: human IgG1,κ anti-AXL antibody, VH SEQ ID NO:31, VL SEQ ID NO:33; FN2 domain binding (antibody, V domains shown, homo sapiens) VH: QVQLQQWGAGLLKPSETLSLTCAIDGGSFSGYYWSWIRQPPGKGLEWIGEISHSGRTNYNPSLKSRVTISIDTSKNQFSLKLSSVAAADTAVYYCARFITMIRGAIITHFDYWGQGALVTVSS VL: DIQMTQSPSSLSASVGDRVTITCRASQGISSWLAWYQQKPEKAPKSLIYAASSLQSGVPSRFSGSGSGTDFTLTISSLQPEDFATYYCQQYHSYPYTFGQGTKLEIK	0.288 (0.206) μg/mL
IgG1-AXL-183: human IgG1,κ anti-AXL antibody, VH SEQ ID NO:16, VL SEQ ID NO:18; FN1 domain binding (antibody, V domains shown, homo sapiens) VH: QVQLQQWGAGLLKPSETLSLTCAVYGGSFSGYYWSWIRQPPGKGLEWIGEINQSGSTNYNPSLKSRVTISVDTSKNQFSLKLSSVTAADTSVYYCASGNWDHFFDYWGQGTLVTVSS VL: DIQMTQSPSSVSASVGDRVTITCRASQGISSWLAWYQHKPGKAPKLLIYATSSLQSGVTSRFSGSGSGTDFTLTISSLQPEDFATYYCQQAKSFPWTFGQGTKVEIK	0.526 (0.177) μg/mL

Any idea what its Binding EC50 human AXL Average (s.d.) is? The molecule is IgG1-AXL-726-M101L: point mutant of IgG1-AXL-726, VH SEQ ID NO:32, VL SEQ ID NO:33 (antibody, V domains shown, homo sapiens) VH: QVQLQQWGAGLLKPSETLSLTCAIDGGSFSGYYWSWIRQPPGKGLEWIGEISHSGRTNYNPSLKSRVTISIDTSKNQFSLKLSSVAAADTAVYYCARFITLIRGAIITHFDYWGQGALVTVSS VL: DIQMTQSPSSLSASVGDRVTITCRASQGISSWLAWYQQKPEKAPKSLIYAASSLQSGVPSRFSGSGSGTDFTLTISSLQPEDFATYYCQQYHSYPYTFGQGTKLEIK
0.184 (0.117) μg/mL

Any idea what its Binding EC50 human AXL Average (s.d.) is? The molecule is IgG1-AXL-733: human IgG1,κ anti-AXL antibody, VH SEQ ID NO:34, VL SEQ ID NO:35; FN1 domain binding (antibody, V domains shown, homo sapiens) VH: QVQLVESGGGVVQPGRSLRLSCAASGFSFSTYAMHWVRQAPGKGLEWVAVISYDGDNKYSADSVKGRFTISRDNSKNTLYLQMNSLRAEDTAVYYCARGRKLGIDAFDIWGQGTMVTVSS VL: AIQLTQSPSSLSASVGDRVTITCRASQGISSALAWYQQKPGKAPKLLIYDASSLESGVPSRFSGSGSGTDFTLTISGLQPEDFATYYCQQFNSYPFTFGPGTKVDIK
0.176 (0.094) μg/mL

Any idea what its Binding EC50 human AXL Average (s.d.) is? The molecule is IgG1-AXL-148: human IgG1,κ anti-AXL antibody, VH SEQ ID NO:5, VL SEQ ID NO:6; Ig2 domain binding (antibody, V domains shown, homo sapiens) VH: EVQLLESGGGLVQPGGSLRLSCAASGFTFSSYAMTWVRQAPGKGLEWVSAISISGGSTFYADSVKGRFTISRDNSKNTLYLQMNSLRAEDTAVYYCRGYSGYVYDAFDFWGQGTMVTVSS VL: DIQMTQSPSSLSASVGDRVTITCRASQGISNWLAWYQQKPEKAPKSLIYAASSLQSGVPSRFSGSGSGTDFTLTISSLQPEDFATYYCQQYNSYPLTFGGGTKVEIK
0.094 (0.059) μg/mL

Any idea what its Binding EC50 human AXL Average (s.d.) is? The molecule is IgG1-AXL-183-N52Q: point mutant of IgG1-AXL-183, VH SEQ ID NO:17, VL SEQ ID NO:18 (antibody, V domains shown, homo sapiens) VH: QVQLQQWGAGLLKPSETLSLTCAVYGGSFSGYYWSWIRQPPGKGLEWIGEIQQSGSTNYNPSLKSRVTISVDTSKNQFSLKLSSVTAADTSVYYCASGNWDHFFDYWGQGTLVTVSS VL: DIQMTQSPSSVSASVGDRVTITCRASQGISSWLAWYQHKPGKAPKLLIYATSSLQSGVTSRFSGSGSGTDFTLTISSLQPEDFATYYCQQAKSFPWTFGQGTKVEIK
0.350 (0.206) μg/mL
